Data origin, for the record: ChEMBL document CHEMBL1201862

Test system: OVCAR-4
assay.notes: NCI tumour cell line growth inhibition, 48 h
Calls of active or inactive are those of the source. No stated cut-off is given here; in the data, active = GI50 up to about 1.1 µM and inactive = higher.
Outcome codes: active, inactive

- compound: "C(=N/c1ccccc1C1SCCCS1)/c1ccccc1"
  class: "inactive"
- compound: "CCOC(=O)C1(C)C2=CC=C(O2)C(C)(C)C2=CC=C(O2)C(C)(C)C2=CC=C(O2)C(C)(C)C2=CC=C1O2"
  class: "inactive"
- compound: "O=c1cccccc1NCCNc1cccccc1=O"
  class: "inactive"
- compound: "Cc1c2cc[n+](C)cc2c(C)c2c1[nH]c1ccc(O)cc12 [ELLIPTINIUM ACETATE]"
  class: "inactive"
- compound: "CO[C@H]1C[C@H](O[C@H]2CC[C@]3(C=O)[C@H]4CC[C@]5(C)[C@@H](C6=CC(=O)OC6)CC[C@]5(O)[C@@H]4CC[C@]3(O)C2)O[C@H](C)[C@H]1O[C@@H]1O[C@H](CO[C@@H]2O[C@H](CO)[C@@H](O)[C@H](O)[C@H]2O)[C@@H](O)[C@H](O)[C@H]1O"
  class: "active"
- compound: "CC1(C)Cc2c(c3ccccc3c3nc4c(nc23)c2c(c3ccccc34)OC(C)(C)C2)O1"
  class: "inactive"
- compound: "CC1S/C(=N\\N=C2/C(=O)Nc3ccc(Br)cc32)N(C2CCCCC2)C1=O (stereo not given)"
  class: "inactive"
- compound: "CC(C)(C)OC(=O)NCC(c1c[nH]c2cc(Br)ccc12)c1c[nH]c2cc(Br)ccc12"
  class: "inactive"
- compound: "CCOc1ccc2nc3nc(O)nc(C)c3c(NC(C)(CO)CO)c2c1"
  class: "inactive"
- compound: "O=C(NC1C=Nc2ccccc2NC1=O)c1ccccc1Cl (stereo not given)"
  class: "inactive"
- compound: "NC(=S)N1N=C(c2ccc3c(c2)CCC3)CC1c1ccccc1 (stereo not given)"
  class: "inactive"
- compound: "c1ccc(N/N=C2\\CC(c3ccccc3)Oc3ccccc32)cc1 (stereo not given)"
  class: "inactive"
- compound: "O=C(O)c1cc(NC2=C(Cl)C(=O)c3c(O)ccc(O)c3C2=O)ccc1O"
  class: "inactive"
- compound: "COc1cc2cc(C(=O)N3CC(CCl)c4ccccc43)[nH]c2c(OC)c1OC (stereo not given)"
  class: "inactive"
- compound: "Cc1cc(-c2nc3ccc(F)cc3s2)ccc1NC(=O)[C@H](C)N"
  class: "inactive"
- compound: "COc1ccc(C(SC2C(O)C(CO)OC2n2ccc(N)nc2=O)(c2ccccc2)c2ccc(OC)cc2)cc1 (stereo not given)"
  class: "inactive"
- compound: "O=C1OCC(O)=C1C(c1ccc(Cl)cc1)c1cc2c(cc1O)OCO2 (stereo not given)"
  class: "inactive"
- compound: "Cc1ccc(NC(=S)SCCC(=O)O)cc1"
  class: "inactive"
- compound: "Cc1cc(C)n(-c2ccnc3cc(Cl)ccc23)n1"
  class: "inactive"
- compound: "O=C(O)C1CCCN(CCc2c[nH]c3ccccc23)C1 (stereo not given)"
  class: "inactive"
